- Procedure text: Cytotoxicity against LPS-induced mouse RAW264.7 cells assessed as cell viability at 82 uM measured after 24 hrs by resazurin dye based fluorescence assay
- Condition: LPS-induced RAW264.7 cells, read-out: Activity
Measurement type: viability at 24 h, 82 µM

Suppose we examine the compound CCCC(=O)c1c(O)c(CC2=C(O)[C@](C)(C/C=C(\C)CCC=C(C)C)C(O)=C(C(C)=O)C2=O)c(O)c(CC=C(C)C)c1OC ; what viability at 24 h, 82 µM value has been reported?
50%

---

- Tested target: Amine oxidase [flavin-containing] B (Rattus norvegicus)
- Sequence (P19643 whole entry): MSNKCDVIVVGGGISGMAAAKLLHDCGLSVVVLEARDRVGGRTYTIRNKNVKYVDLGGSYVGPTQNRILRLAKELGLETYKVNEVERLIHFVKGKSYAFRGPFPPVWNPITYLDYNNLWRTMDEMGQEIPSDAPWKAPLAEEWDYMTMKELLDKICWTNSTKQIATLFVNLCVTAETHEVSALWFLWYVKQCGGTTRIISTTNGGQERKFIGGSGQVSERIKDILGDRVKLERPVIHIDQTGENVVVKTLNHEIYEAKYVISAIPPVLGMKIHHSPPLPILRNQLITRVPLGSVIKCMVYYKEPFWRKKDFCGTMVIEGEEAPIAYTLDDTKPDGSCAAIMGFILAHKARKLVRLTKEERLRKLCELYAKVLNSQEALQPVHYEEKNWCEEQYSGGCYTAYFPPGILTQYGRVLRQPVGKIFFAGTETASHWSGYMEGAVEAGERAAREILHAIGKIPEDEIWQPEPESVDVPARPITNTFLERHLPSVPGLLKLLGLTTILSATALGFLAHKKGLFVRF
Catalogue of IC50 readings, one per entry.

>  <Smiles code>
CCCC(=O)c1c(OC)cc(O)c(CC2=C(O)[C@](C)(C/C=C(\C)CCC=C(C)C)C(O)=C(C(C)=O)C2=O)c1O

>  <Tested target>
Amine oxidase [flavin-containing] B (Rattus norvegicus)

>  <Result value>
4.7 µM

$$$$

Now turn to the next compound.
Give the measured IC50 of CCCC(=O)c1c(O)c(CC2=C(O)[C@](C)(C/C=C(\C)CCC=C(C)C)C(O)=C(C(C)=O)C2=O)c(O)c(CC=C(C)C)c1OC .
4.4 µM

---

- Procedure text: Selectivity index, ratio of IC50 for human HSF30 cells to IC50 for human PC3 cells
- Assay type: toxicity
- Condition: HSF30 cells and PC3 cells, read-out: Ratio IC50
Measurement type: selectivity ratio
Number, no unit, nothing else.

>  <Molecule>
CCCC(=O)c1c(O)c(CC2=C(O)[C@](C)(C/C=C(\C)CCC=C(C)C)C(O)=C(C(C)=O)C2=O)c(O)c(CC=C(C)C)c1OC

>  <Result value>
0.029

$$$$
>  <Molecule>
CCCC(=O)c1c(OC)cc(O)c(CC2=C(O)[C@](C)(C/C=C(\C)CCC=C(C)C)C(O)=C(C(C)=O)C2=O)c1O

>  <Result value>
0.005

$$$$

Continue with the next molecule.
# get_value(readout='selectivity ratio', item= COc1cc([C@@H]2c3cc4c(cc3[C@H](O)[C@H]3COC(=O)[C@H]23)OCO4)cc(OC)c1OC [PODOFILOX] )
0.11

---

- Tested on: MCF7
- Procedure text: Cytotoxicity against human MCF7 cells measured after 72 hrs by sulforhodamine B assay
- Type: functional, cell-based
- Condition: MCF7, 72 h
Measurement type: IC50 (nM)
The reply should be a number in nM, with the unit left off.

>  <Compound>
COc1cc([C@@H]2c3cc4c(cc3[C@H](O)[C@H]3COC(=O)[C@H]23)OCO4)cc(OC)c1OC [PODOFILOX]

>  <Measurement type>
IC50

>  <Units>
nM

>  <Result value>
5

$$$$

Could you now consider this next compound?
Data request, read-out IC50, for CC(=O)O[C@H]1C(=O)[C@@]2(C)[C@H]([C@H](OC(=O)c3ccccc3)[C@]3(O)C[C@H](OC(=O)[C@H](O)[C@@H](NC(=O)c4ccccc4)c4ccccc4)C(C)=C1C3(C)C)[C@]1(OC(C)=O)CO[C@@H]1C[C@@H]2O [PACLITAXEL]
50

---

- Procedure text: Selectivity index, ratio of IC50 for human HSF30 cells to IC50 for human MCF7 cells
- Type: toxicity
- Condition: HSF30 cells and MCF7 cells, read-out: Ratio IC50
Catalogue of molecules with associated selectivity ratio
Enter the number alone.

>  <Smiles code>
COc1cc([C@@H]2c3cc4c(cc3[C@H](O)[C@H]3COC(=O)[C@H]23)OCO4)cc(OC)c1OC

>  <selectivity ratio>
0.45

$$$$
>  <Smiles code>
CCCC(=O)c1c(O)c(CC2=C(O)[C@](C)(C/C=C(\C)CCC=C(C)C)C(O)=C(C(C)=O)C2=O)c(O)c(CC=C(C)C)c1OC

>  <selectivity ratio>
0.0025

$$$$

Data request, read-out selectivity ratio, for CCCC(=O)c1c(OC)cc(O)c(CC2=C(O)[C@](C)(C/C=C(\C)CCC=C(C)C)C(O)=C(C(C)=O)C2=O)c1O
0.0002

---

- Tested target: UniProtKB P21396
- Sequence (P21396 whole entry): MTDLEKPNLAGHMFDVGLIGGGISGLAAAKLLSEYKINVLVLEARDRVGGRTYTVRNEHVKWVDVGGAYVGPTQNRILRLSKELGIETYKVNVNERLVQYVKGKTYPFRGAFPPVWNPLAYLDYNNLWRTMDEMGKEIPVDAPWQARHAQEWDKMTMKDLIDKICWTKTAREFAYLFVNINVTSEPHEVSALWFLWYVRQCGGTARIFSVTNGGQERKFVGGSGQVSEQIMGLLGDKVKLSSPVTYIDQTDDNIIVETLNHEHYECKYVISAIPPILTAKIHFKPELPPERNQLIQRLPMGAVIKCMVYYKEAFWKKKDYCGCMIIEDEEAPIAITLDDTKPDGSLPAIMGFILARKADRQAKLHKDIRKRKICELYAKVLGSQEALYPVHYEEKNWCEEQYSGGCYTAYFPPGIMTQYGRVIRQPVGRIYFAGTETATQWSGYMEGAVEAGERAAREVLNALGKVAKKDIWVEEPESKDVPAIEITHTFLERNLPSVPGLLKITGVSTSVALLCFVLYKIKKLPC
Measurement type: IC50 (µM)
# output: bare number, implied unit µM

>  <Smiles code>
CCCC(=O)c1c(O)c(CC2=C(O)[C@](C)(C/C=C(\C)CCC=C(C)C)C(O)=C(C(C)=O)C2=O)c(O)c(CC=C(C)C)c1OC

>  <IC50 [µM]>
1.3

$$$$

Turning now to a further compound:
Given CCCC(=O)c1c(OC)cc(O)c(CC2=C(O)[C@](C)(C/C=C(\C)CCC=C(C)C)C(O)=C(C(C)=O)C2=O)c1O , state its recorded IC50.
31
